Reference for the values: ChEMBL document CHEMBL5038611

- System: A549
- Protocol Description: Antiproliferative activity against human A549 cells assessed as reduction in cell viability incubated for 72 hrs by MTT assay
- Assay type: functional, cell-based
- Settings: A549, 72 h
Parameter: IC50 (µM)
Form entry: value (µM) — number only.

# value lookup — system A549, readout IC50, item `COc1cc(-n2cnc3ccc(-c4ccc(C)cc4)cc32)cc(OC)c1OC` 1.94

Enter reported IC50 observed with A549 for `COc1cc(-n2cnc3ccc(-c4cccc(Cl)c4)cc32)cc(OC)c1OC` 7.05

Reported IC50 for A549, given `COc1cc(-n2cnc3ccc(-c4ccc(C(F)(F)F)cc4)cc32)cc(OC)c1OC` ? 3.39

Under A549: IC50 value of `COc1ccc(-c2ccc3ncn(-c4cc(OC)c(OC)c(OC)c4)c3c2)cc1F` ? 1.43

Lookup: IC50 / A549 / `CCOc1ccc(-c2ccc3ncn(-c4cc(OC)c(OC)c(OC)c4)c3c2)cc1` 8.55

Hello, I am looking for reported IC50 with A549 for `COc1cc(-n2cnc3ccc(-c4ccc(O)cc4)cc32)cc(OC)c1OC` . Could you help? 5.09

Lab note: need IC50 for `COc1cc(-n2cnc3ccc(-c4ccc(C(C)=O)cc4)cc32)cc(OC)c1OC` on A549, anyone have it? 2.51

Missing value: IC50, A549, entry `COc1cc(-n2cnc3ccc(-c4cccc(O)c4)cc32)cc(OC)c1OC` . Fill in? 0.25

Test system A549; read-out IC50; what value for `COc1cc(-n2cnc3ccc(-c4cccc(F)c4)cc32)cc(OC)c1OC` ? 5.27

---

- Tested on: A549
- Protocol Description: Antiproliferative activity against human A549 cells assessed as reduction in cell viability incubated for 72 hrs by MTT assay
- Assay type: functional, cell-based
- Settings: A549, 72 h
Parameter: pIC50
Value format note: pIC50 is -log10 of concentration (mol/L); just state the number.

Reported pIC50 for A549, given `COc1cccc(-c2ccc3ncn(-c4cc(OC)c(OC)c(OC)c4)c3c2)c1` ? 5.50

Form field: pIC50 recorded for `COc1cc(-n2cnc3ccc(-c4cc(F)ccc4F)cc32)cc(OC)c1OC` with A549 (enter value) 5.10

What value of pIC50 on A549 does `COc1cc(-n2cnc3ccc(-c4cccc(C)c4)cc32)cc(OC)c1OC` have? 5.42

Lab note: need pIC50 with A549 for entry `COc1cc(-n2cnc3ccc(-c4ccc([N+](=O)[O-])cc4)cc32)cc(OC)c1OC` , please look it up. 5.05

A549 / pIC50 / `COc1ccccc1-c1ccc2ncn(-c3cc(OC)c(OC)c(OC)c3)c2c1` : value? 5.36

Give recorded pIC50 with A549 for the following molecule: `COc1cc(-n2cnc3ccc(-c4cccc([N+](=O)[O-])c4)cc32)cc(OC)c1OC` 5.27

What value of pIC50 on A549 does `COc1cc2c(c(OC)c1OC)-c1ccc(OC)c(=O)cc1[C@@H](NC(C)=O)CC2` have? 7.02

Form: Entry = `COc1ccc(-c2ccc3ncn(-c4cc(OC)c(OC)c(OC)c4)c3c2)cc1O` | System = A549 | pIC50 = ____ 6.70

Query for A549: what pIC50 does the record show for `COc1cc(-n2cnc3ccc(-c4cccc(C)c4C)cc32)cc(OC)c1OC` ? 5.03

Kindly state the measured pIC50 obtained for `COc1cc(-n2cnc3ccc(-c4ccccc4)cc32)cc(OC)c1OC` with A549. 5.51

Please tell me: pIC50 of `COc1cc(-n2cnc3ccc(-c4ccc(F)cc4)cc32)cc(OC)c1OC` , system A549? 5.17

Please provide the recorded pIC50 for `COc1cc(-n2cnc3ccc(-c4cccc(N)c4)cc32)cc(OC)c1OC` , tested on A549. 6.19

---

Kindly state IC50 for each of the entries shown.
- Test system: A549
- Protocol Description: Antiproliferative activity against human A549 cells assessed as reduction in cell viability incubated for 72 hrs by MTT assay
- Type: functional, cell-based
- Settings: A549, 72 h

Item `COc1cc(-n2cnc3ccc(-c4ccc(Cl)cc4)cc32)cc(OC)c1OC` has what recorded IC50? > 10 µM

Bench note: what IC50 did `COc1cc(-n2cnc3ccc(-c4ccccc4Cl)cc32)cc(OC)c1OC` show? > 10 µM

Which measured IC50 value corresponds to `COc1ccc(-c2ccc3ncn(-c4cc(OC)c(OC)c(OC)c4)c3c2)cc1` ? > 10 µM

Fill blank: measured IC50 of the compound `COc1cc(-c2ccc3ncn(-c4cc(OC)c(OC)c(OC)c4)c3c2)cc(OC)c1OC` is ____. > 10 µM

Entry `COc1cc(-n2cnc3ccc(-c4ccc(C)cc4F)cc32)cc(OC)c1OC` : reported IC50 = ? > 10 µM
